- target_under_test: STK38 (human)
- protocol_notes: KINOMEscan competition binding
- conditions: compound 10.0 µM
quantity: kinase still bound, per cent of control (%)
Report the figure in % without appending any unit label.

Known kinase still bound, per cent of control results, listed for orientation:
In [3]: df
Out[3]:
                            compound_smiles                                 quantity  scale_unit  numeric_result
0  CNC(=O)c1cc(Oc2ccc(NC(=O)Nc3ccc(Cl)c(C(F)(F)F)c3)cc2)ccn1  kinase still bound, per cent of control           %              85
1  COc1cc2ncnc(-n3nc(-c4ccccn4)nc3N)c2cc1OC  kinase still bound, per cent of control           %              51
2  COc1cc(C(=O)N2CCC(N3CCN(C)CC3)CC2)ccc1Nc1ncc2c(n1)N(C)c1ccccc1C(=O)N2C  kinase still bound, per cent of control           %              96
3  O=C(Nc1cccc(Nc2ncc(Br)c(NCCc3cnc[nH]3)n2)c1)N1CCCC1  kinase still bound, per cent of control           %              35

We now examine a further molecule.
Qu. Kindly state the measured kinase still bound, per cent of control obtained for `N#CCNC(=O)c1ccc(-c2ccnc(Nc3ccc(N4CCOCC4)cc3)n2)cc1` with STK38 (human).
Ans. 59

* * *

- target_under_test: AXL (human)
- protocol_notes: KINOMEscan competition binding
- conditions: compound 10.0 µM
List of kinase still bound, per cent of control values.
Report the figure in % without appending any unit label.

                            compound_smiles  scale_unit  numeric_result
0  C=CC(=O)Nc1ccc(CN(C(=O)Nc2c(Cl)c(OC)cc(OC)c2Cl)c2cc(Nc3ccc(N4CCN(C)CC4)cc3)ncn2)cc1           %             100

Qu. Kindly state the measured kinase still bound, per cent of control obtained for `COCC(=O)NC/C=C/c1ccc2ncnc(Nc3ccc(Oc4ccc(C)nc4)c(C)c3)c2c1` with AXL (human).
Ans. 68

Qu. Moving on to `CS(=O)(=O)N1CCN(Cc2cc3nc(-c4cccc5[nH]ncc45)nc(N4CCOCC4)c3s2)CC1`
Ans. 100

Qu. Moving on to `CNC(=O)c1ccc(Nc2cc(Nc3ccccc3S(=O)(=O)C(C)C)c3cc[nH]c3n2)nc1`
Ans. 1.3

Qu. Moving on to `C[C@@H](Oc1cc(-c2cnn(C3CCNCC3)c2)cnc1N)c1c(Cl)ccc(F)c1Cl`
Ans. 5.3

* * *

- Test system: ABL1 (human), P00519 [Y253F]
- protocol_notes: KINOMEscan competition binding
- conditions: compound 10.0 µM
quantity: kinase still bound, per cent of control (%)
Report the figure in % without appending any unit label.

                            compound_smiles                                 quantity  numeric_result
0  C[C@@H](Oc1cc(-n2cnc3ccc(CN4CCN(C)CC4)cc32)sc1C(N)=O)c1ccccc1C(F)(F)F  kinase still bound, per cent of control              69
1             Cc1ccc2nc(NCCN)c3ncc(C)n3c2c1  kinase still bound, per cent of control             100
2  CCN1CCN(C(=O)Cc2ccc(Nc3ncc(F)c(Nc4ccc(C(=O)Nc5ccccc5Cl)cc4)n3)cc2)CC1  kinase still bound, per cent of control              16
3  Cc1cn(-c2cc(C(=O)Nc3ccc(C)c(NC(=O)c4ccno4)c3)cc(C(F)(F)F)c2)cn1  kinase still bound, per cent of control             7.4

Qu. Kindly state the measured kinase still bound, per cent of control obtained for `COc1cc(N2CCN(C)CC2)ccc1Nc1ncc2c(n1)N(C)c1ccccc1C(=O)N2C` with ABL1 (human), P00519 [Y253F].
Ans. 100

Qu. Moving on to `O=c1[nH]c2ccccc2n1C1CCN(Cc2ccc(-c3nc4cc5[nH]cnc5cc4nc3-c3ccccc3)cc2)CC1`
Ans. 72

Qu. Moving on to `COc1cc2ncnc(-n3nc(-c4ccccn4)nc3N)c2cc1OC`
Ans. 0.3

Qu. Moving on to `O=c1cc(N2CCOCC2)oc2c(-c3cccc4c3sc3ccccc34)cccc12`
Ans. 100

Qu. Moving on to `C=CC(=O)Nc1cc(-n2c(=O)ccc3cnc4ccc(-c5cn[nH]c5)cc4c32)ccc1C`
Ans. 71
